target: human Endothelial Differentiation Gene 1 (EDG1) (Homo sapiens); construct: TEV protease site; Gal4-VP16 transcription factor; expressed in transfected cells; host or cells: EDG1-bla/U2OS (Tango GPCR-bla U2OS parental cell line); test: S1P1 Tango assay - 384 well format; format: cell-based; conditions: EDG1-bla/U2OS cells, agonist
Sequence (P21453 whole entry, the tested form may be a part): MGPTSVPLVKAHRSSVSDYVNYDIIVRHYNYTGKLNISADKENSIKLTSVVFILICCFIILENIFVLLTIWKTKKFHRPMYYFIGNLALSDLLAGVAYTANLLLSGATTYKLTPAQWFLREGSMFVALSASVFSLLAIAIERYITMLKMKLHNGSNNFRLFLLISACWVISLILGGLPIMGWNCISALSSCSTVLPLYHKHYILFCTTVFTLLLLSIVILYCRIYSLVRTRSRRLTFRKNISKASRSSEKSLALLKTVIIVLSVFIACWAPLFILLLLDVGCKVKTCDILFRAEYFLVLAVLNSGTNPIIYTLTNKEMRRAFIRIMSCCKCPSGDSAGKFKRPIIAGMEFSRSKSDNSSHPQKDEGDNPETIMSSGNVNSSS
pEC50: −log10 of the molar value.
What pEC50 was measured for each of the following?

// each compound listed below needs its pEC50
1. CC(C)Oc1ccc(-c2nc(-c3ccc(F)c(CCC(=O)O)c3)no2)cc1C#N [Example 22]
2. CCc1c(CCCC(=O)O)cccc1-c1noc(-c2cnc(OC(C)C)c(Cl)c2)n1 [Example 14]

Response:
1: ≥ 6.00; 2: ≥ 8.00

Give measured pEC50 for every item shown.
1. COc1c(CCC(=O)O)cc(F)cc1-c1noc(-c2ccc(OC(C)C)c(C#N)c2)n1 [Example 30]
2. CCc1c(CNCCC(=O)O)cccc1-c1nsc(-c2ccc(OC(C)C)c(C#N)c2)n1 [Example 48]
3. CCc1c(OCC(=O)O)cccc1-c1noc(-c2ccc(OC(C)C)c(C#N)c2)n1 [Example 40]

Response:
["≥ 9.00", "≥ 8.00", "≥ 8.00"]

---

I'd be grateful if you could share measured pEC50 for these entries.
target: human Endothelial Differentiation Gene 1 (EDG1) (Homo sapiens); construct: TEV protease site; Gal4-VP16 transcription factor; expressed in transfected cells; host or cells: EDG1-bla/U2OS (Tango GPCR-bla U2OS parental cell line); assay: S1P1 Tango assay - 96 well format; type: cell-based; settings: EDG1-bla/U2OS cells, agonist
pEC50: −log10 of the molar value.

Each compound below has a reported value. Please supply its pEC50.
1. Cc1c(CCCC(=O)O)cccc1-c1noc(-c2cnc(OC(C)C)c(Cl)c2)n1
2. Cc1c(C[C@@H](C)C(=O)O)cccc1-c1noc(-c2cnc(OC(C)C)c(Cl)c2)n1
3. CC(C)Oc1ccc(-c2nc(-c3ccnc(CCCC(=O)O)c3)no2)cc1C#N

Response:
1: < 6.00; 2: < 6.00; 3: < 6.00

---

target: human Endothelial Differentiation Gene 1 (EDG1) (Homo sapiens); construct: TEV protease site; Gal4-VP16 transcription factor; expressed in transfected cells; host or cells: EDG1-bla/U2OS (Tango GPCR-bla U2OS parental cell line); test: S1P1 Tango assay - 384 well format; type: cell-based; details: EDG1-bla/U2OS cells, agonist
pEC50: −log10 of the molar value.
MEASURE NAME: pEC50

Prompt: Record CCc1c(CCN(C)CC(=O)O)cccc1-c1cnc(-c2ccc(OC(C)C)c(Cl)c2)s1 [Example 56] : what is its pEC50 with human Endothelial Differentiation Gene 1 (EDG1) (Homo sapiens)?
Response: ≥ 8.00

Prompt: Further, for CCc1c(OCCCC(=O)O)cccc1-c1noc(-c2ccc(OC(C)C)c(C#N)c2)n1 [Example 38] ?
Response: ≥ 8.00

Prompt: Follow-up entry: CCCc1c(CCCC(=O)O)cccc1-c1noc(-c2ccc(OC(C)C)c(Cl)c2)n1 [Example 36]
Response: ≥ 8.00

Prompt: Quick one: CC(C)Oc1ccc(-c2nc(-c3ccnc(CCC(=O)O)c3)no2)cc1C#N [Example 20]
Response: ≥ 6.00

Prompt: Please answer likewise for COc1c(CCCC(=O)O)cc(F)cc1-c1noc(-c2ccc(OC(C)C)c(Cl)c2)n1 [Example 35]
Response: ≥ 9.00

Value sought for every listed compound: pEC50.
1. CCc1c(CCN(C)CC(=O)O)cccc1-c1cnc(-c2ccc(OC(C)C)c(C#N)c2)s1 [Example 53]
2. CC(C)Oc1ccc(-c2nc(-c3ccc(F)c(CCCC(=O)O)c3)no2)cc1C#N [Example 23]
3. CCc1c(CCCC(=O)O)cccc1-c1nnc(-c2ccc(OC(C)C)c(C#N)c2)o1 [Example 41]
4. COc1c(CCCC(=O)O)cc(F)cc1-c1noc(-c2cnc(OC(C)C)c(Cl)c2)n1 [Example 32]
5. CCc1c(CCN(C)CCC(=O)O)cccc1-c1cnc(-c2ccc(OC(C)C)c(C#N)c2)s1 [Example 59]

Response:
1: ≥ 8.00; 2: ≥ 6.00; 3: ≥ 8.00; 4: ≥ 8.00; 5: ≥ 9.00

Record pEC50 per entry; entries follow.
1. CCc1c(CN(C)CCC(=O)O)cccc1-c1cnc(-c2ccc(OC(C)C)c(C#N)c2)s1 [Example 57]
2. CCc1c(CN(C)CC(=O)O)cccc1-c1cnc(-c2ccc(OC(C)C)c(C#N)c2)s1 [Example 55]
3. CC(C)Oc1ccc(-c2nc(-c3cccc(CCCC(=O)O)c3Cl)no2)cc1C#N [Example 11]
4. CCc1c(CCCC(=O)O)cccc1-c1noc(-c2ccc(OC(C)C)c(C#N)c2)n1 [Example 15]
5. CCc1c(CCCC(=O)O)cccc1-c1cnc(-c2ccc(OC(C)C)c(Cl)c2)s1 [Example 52]
6. COc1c(CCCC(=O)O)cccc1-c1noc(-c2ccc(OC(C)C)c(Cl)c2)n1 [Example 17]
7. CC(C)Oc1ccc(-c2nc(-c3cccc(CCCCCC(=O)O)c3Cl)no2)cc1C#N [Example 12]
8. CCc1c(CCCC(=O)O)cccc1-c1noc(-c2ccc(OC(C)C)c(Cl)c2)n1 [Example 28]

Response:
1: ≥ 7.00; 2: ≥ 7.00; 3: ≥ 9.00; 4: ≥ 9.00; 5: ≥ 8.00; 6: ≥ 9.00; 7: ≥ 9.00; 8: ≥ 9.00
